- target.of.assay: Protein arginine N-methyltransferase 1 (Homo sapiens, UniProt Q99873)
- Sequence (Q99873 whole entry, the tested form may be a part): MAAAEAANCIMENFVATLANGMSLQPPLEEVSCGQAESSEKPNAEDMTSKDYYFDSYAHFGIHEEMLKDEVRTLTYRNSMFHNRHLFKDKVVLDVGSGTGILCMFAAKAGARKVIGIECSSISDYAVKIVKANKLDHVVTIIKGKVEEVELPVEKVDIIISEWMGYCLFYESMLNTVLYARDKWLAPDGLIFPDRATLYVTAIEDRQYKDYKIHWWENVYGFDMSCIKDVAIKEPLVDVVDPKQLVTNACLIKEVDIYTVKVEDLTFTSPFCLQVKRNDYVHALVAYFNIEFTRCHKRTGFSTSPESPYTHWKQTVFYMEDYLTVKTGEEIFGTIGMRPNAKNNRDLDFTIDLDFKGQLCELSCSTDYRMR
- assay: Inhibition of GST-fused human recombinant PRMT1 after 90 mins by SDS-PAGE based scintillation counting
readout: pIC50
Give only the number. pIC50 is defined as minus log10 of concentration in molar units.

N=C(N)NCCCN(CC[C@H](N)C(=O)O)C[C@H]1O[C@@H](n2cnc3c(N)ncnc32)[C@H](O)[C@@H]1O 5.21

## Input Given N=C(N)NCCCCN(CC[C@H](N)C(=O)O)C[C@H]1O[C@@H](n2cnc3c(N)ncnc32)[C@H](O)[C@@H]1O , respond with its pIC50.
## Output 5.54
